Target: UniProt P07814
Sequence (P07814 1007-1512 limits assumed): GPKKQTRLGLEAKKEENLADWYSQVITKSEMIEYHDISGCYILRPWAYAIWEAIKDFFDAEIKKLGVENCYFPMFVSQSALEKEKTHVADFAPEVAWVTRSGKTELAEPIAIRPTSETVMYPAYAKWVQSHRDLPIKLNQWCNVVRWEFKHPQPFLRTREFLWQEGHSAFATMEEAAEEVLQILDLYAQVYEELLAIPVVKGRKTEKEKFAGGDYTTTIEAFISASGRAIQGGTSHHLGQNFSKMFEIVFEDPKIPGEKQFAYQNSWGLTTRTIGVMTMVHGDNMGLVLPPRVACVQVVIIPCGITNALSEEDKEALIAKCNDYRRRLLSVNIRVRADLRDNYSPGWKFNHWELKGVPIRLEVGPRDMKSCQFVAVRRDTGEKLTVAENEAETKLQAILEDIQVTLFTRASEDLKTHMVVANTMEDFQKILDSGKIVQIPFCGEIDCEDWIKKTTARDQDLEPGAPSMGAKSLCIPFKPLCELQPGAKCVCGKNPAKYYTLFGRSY
Test: TR-FRET ligand displacement assay with tracer MAT379, HsProRS
Type: binding
Conditions: KD for HsProRS
Where a name gives a salt, the structure may show the parent alone.
property: Kd (nM)
Give bare numbers, in nM.

Task: I'd like to know its Kd. The compound in question is O=C(NS(=O)(=O)N1CCN(C(=O)Nc2nccnc2C(=O)NC2Cc3ccccc3C2)CC1)OC[C@@H]1CCCN1 [MAT457, hydrochloride]
Output: 9.71

---

Would you kindly list Kd for each of these compounds?
Target: HsProRS (Homo sapiens, UniProt P07814)
Experiment: TR-FRET ligand displacement assay with tracer MAT379, HsProRS
Assay type: binding
Conditions: no proline, no ATP; read-out: HsProRS (KD [nM]) −
Give bare numbers, in nM.

CC(C)(C)OC(=O)NCCCCCC(=O)NC1CCN(C(=O)Nc2nccnc2C(=O)NC2Cc3ccccc3C2)CC1
139
CC(C)(C)OC(=O)NCCCCCC(=O)NCC1CCN(C(=O)Nc2nccnc2C(=O)NC2Cc3ccccc3C2)CC1
611

Moving on to another compound below.
Task: Dear colleague, I am looking for the recorded Kd of the following compound: CC(C)(C)OC(=O)NC1CCN(C(=O)Nc2nccnc2C(=O)NC2Cc3ccccc3C2)CC1
Output: 22.1

---

Tested on: P. falciparum Dd2-2D4
Test: P. falciparum asexual blood stage growth assay, wild-type Dd2-2D4
Conditions: Plasmodium falciparum, DD2, 72 h, read-out: Dd2 (EC50 [nM]) wt
Where a name gives a salt, the structure may show the parent alone.
property: log10 of EC50 (log10 of the value in nM)
Recorded EC50 (log10, nM)

Previously resolved entries follow.
O=C(NC1Cc2ccccc2C1)c1nccnc1NC(=O)N1CCC(CCO)CC1 [Compound 12]
2.18
CC1(C(=O)Nc2nccnc2C(=O)NC2Cc3ccccc3C2)CCCCC1 [Compound 4]
2.26
O=C(NS(=O)(=O)N1CCN(C(=O)Nc2nccnc2C(=O)NC2Cc3ccccc3C2)CC1)OC[C@H]1CCCN1 [MAT459]
3.66
O=C(NS(=O)(=O)N1CCN(C(=O)Nc2nccnc2C(=O)NC2Cc3ccccc3C2)CC1)O[C@H]1CCCNC1 [MAT445]
3.06
O=C(NS(=O)(=O)NC1CCN(C(=O)Nc2nccnc2C(=O)NC2Cc3ccccc3C2)CC1)OCCn1cnc2ccccc2c1=O [MAT513]
3.68
O=C(CCCCCNC(=O)Nc1ccccc1)NCC1CCN(C(=O)Nc2nccnc2C(=O)NC2Cc3ccccc3C2)CC1 [MAT516]
2.80
O=C(CCCCCNC(=O)Nc1ccccc1)NC1CCN(C(=O)Nc2nccnc2C(=O)NC2Cc3ccccc3C2)CC1 [MAT515]
2.58
O=C(CCCCCNC(=S)NC1CCCCC1)NCC1CCN(C(=O)Nc2nccnc2C(=O)NC2Cc3ccccc3C2)CC1 [MAT518]
3.26
CC(C)(C)OC(=O)NCC1CCN(C(=O)Nc2nccnc2C(=O)NC2Cc3ccccc3C2)CC1 [Compound 9]
3.82
O=C(NC1Cc2ccccc2C1)c1nccnc1NS(=O)(=O)C1CCCCC1 [Compound 50]
4.11

Look up log10 of EC50 for the entries below, preserving their order.
1. O=C(NS(=O)(=O)N1CCN(C(=O)Nc2nccnc2C(=O)NC2Cc3ccccc3C2)CC1)O[C@@H]1CCCNC1 [MAT447]
2. O=C(O)CCCC(=O)Nc1nccnc1C(=O)NC1Cc2ccccc2C1 [Compound 22]

Output:
1: 3.80; 2: 4.09

Provide each entry's log10 of EC50 from the list below.
1. CC(C)(C)OC(=O)N[C@H]1CC[C@@H](C(=O)Nc2nccnc2C(=O)NC2Cc3ccccc3C2)CC1 [Compound 6]
2. CNc1nccnc1C(=O)NC1Cc2ccccc2C1 [Compound 46]
3. O=c1[nH]c2nccnc2c(=O)n1C1Cc2ccccc2C1 [Compound 47]

Output:
1. 2.71
2. 3.91
3. 4.05

Could I get log10 of EC50 for every one of these entries?
1. CC(C)(C)OC(=O)N1CCC[C@@H](OC(=O)NS(=O)(=O)N2CCN(C(=O)Nc3nccnc3C(=O)NC3Cc4ccccc4C3)CC2)[C@@H]1CC(O)Cn1cnc2cc(Br)c(Cl)cc2c1=O (stereo partly shown) [MAT582]
2. O=C(NC1Cc2ccccc2C1)c1nccnc1NC(=O)N1CCC(CO)CC1 [Compound 11]
3. O=C(CCCCCNC(=S)Nc1ccccc1)NCC1CCN(C(=O)Nc2nccnc2C(=O)NC2Cc3ccccc3C2)CC1 [MAT517]
4. O=C(C[C@H]1NCCC[C@@H]1O)Cn1cnc2cc(Br)c(Cl)cc2c1=O [halofuginone(1), halofuginone, reference compound]
5. Nc1nccnc1C(=O)NC1CCCCC1 [Compound 48]
6. O=C(NC1CCCCC1)c1nccnc1NC(=O)C1Cc2ccccc2C1 [Compound 49]
7. O=C(NC1Cc2ccccc2C1)c1nccnc1NC(=O)N1CCCCC1 [NCP26 (3)]
8. O=C(NS(=O)(=O)N1CCN(C(=O)Nc2nccnc2C(=O)NC2Cc3ccccc3C2)CC1)OC[C@@H]1CCCN1 [MAT457, hydrochloride]

Output:
1. 3.94
2. 2.85
3. 3.43
4. -0.28
5. 3.94
6. 3.83
7. 1.83
8. 2.99

Hi! Can you tell me log10 of EC50 for each of these compounds?
1. O=C(NS(=O)(=O)N1CCN(C(=O)Nc2nccnc2C(=O)NC2Cc3ccccc3C2)CC1)O[C@H]1CCCN[C@@H]1CC(O)Cn1cnc2cc(Br)c(Cl)cc2c1=O (stereo partly shown) [MAT583, 2,2,2-trifluoroacetate]
2. Nc1ncnc2c1ncn2[C@@H]1O[C@H](CNS(=O)(=O)NC(=O)OCCn2cnc3ccccc3c2=O)[C@@H](O)[C@H]1O [MAT511]
3. NC(=O)Nc1nccnc1C(=O)NC1Cc2ccccc2C1 [Compound 23]

Output:
1. 3.36
2. 1.88
3. 4.08
